Target: UniProt:Q14524
Sequence (Q14524 whole entry): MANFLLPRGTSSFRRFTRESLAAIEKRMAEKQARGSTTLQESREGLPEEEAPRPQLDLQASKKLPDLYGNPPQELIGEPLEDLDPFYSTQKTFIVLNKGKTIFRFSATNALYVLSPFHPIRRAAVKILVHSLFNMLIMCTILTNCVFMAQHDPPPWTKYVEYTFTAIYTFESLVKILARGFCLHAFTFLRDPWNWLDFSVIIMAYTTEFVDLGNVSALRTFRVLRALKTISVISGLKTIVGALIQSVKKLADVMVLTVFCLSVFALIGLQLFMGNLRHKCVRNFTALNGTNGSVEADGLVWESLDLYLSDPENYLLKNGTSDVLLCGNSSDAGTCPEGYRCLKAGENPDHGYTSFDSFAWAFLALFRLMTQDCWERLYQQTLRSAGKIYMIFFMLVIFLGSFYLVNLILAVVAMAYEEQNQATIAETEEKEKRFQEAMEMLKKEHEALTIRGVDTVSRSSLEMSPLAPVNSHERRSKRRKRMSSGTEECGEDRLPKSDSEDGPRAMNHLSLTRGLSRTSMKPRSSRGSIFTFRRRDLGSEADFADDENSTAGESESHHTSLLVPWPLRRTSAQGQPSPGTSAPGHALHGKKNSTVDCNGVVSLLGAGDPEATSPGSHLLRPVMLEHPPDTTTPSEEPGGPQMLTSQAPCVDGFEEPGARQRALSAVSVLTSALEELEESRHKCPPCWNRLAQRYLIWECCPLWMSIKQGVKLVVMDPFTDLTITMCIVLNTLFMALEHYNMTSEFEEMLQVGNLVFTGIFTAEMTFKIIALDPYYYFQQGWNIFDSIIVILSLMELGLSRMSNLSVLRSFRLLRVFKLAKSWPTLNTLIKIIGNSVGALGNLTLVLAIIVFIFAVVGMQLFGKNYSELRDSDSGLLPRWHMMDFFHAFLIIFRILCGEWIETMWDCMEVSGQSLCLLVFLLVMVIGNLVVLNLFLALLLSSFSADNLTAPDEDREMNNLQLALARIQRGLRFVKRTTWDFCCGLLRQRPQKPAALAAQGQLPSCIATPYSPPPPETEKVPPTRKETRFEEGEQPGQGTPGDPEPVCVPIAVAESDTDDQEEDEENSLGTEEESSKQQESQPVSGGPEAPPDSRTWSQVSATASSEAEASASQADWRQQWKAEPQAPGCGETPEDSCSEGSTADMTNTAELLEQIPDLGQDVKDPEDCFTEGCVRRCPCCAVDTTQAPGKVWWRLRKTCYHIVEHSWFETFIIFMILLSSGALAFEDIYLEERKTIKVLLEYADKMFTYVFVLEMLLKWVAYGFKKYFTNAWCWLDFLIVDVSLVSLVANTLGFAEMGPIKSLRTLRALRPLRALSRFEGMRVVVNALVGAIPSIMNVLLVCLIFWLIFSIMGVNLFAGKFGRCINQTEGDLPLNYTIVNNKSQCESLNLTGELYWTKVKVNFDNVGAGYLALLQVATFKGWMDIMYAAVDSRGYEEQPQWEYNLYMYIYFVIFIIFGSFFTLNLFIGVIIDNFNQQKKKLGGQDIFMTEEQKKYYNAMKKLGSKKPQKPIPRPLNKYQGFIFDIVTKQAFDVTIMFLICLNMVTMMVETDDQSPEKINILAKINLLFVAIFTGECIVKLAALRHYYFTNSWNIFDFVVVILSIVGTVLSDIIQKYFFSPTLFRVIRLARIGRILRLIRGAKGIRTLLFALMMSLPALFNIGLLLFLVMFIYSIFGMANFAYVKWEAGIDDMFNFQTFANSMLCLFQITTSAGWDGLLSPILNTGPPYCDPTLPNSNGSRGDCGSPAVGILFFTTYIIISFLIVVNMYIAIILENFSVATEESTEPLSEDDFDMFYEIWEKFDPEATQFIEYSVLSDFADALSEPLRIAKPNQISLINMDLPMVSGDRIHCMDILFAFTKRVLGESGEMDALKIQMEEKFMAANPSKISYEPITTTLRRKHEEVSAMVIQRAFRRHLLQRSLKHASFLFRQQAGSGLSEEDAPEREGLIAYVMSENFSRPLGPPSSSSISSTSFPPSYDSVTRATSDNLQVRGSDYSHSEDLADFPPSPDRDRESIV
Assay: cell-based
Assay endpoint: IC50 (nM)
Write it as a number; the unit nM goes unstated.

Entry "OC[C@H]1O[C@@H](c2ccc(Cl)c(Cc3ccc(O[C@H]4CCOC4)cc3)c2)[C@H](O)[C@@H](O)[C@@H]1O" — recorded IC50 = 790

Entry "CCOc1ccc(Cc2cc([C@@H]3O[C@H](CO)[C@@H](O)[C@H](O)[C@H]3O)ccc2Cl)cc1" — recorded IC50 = 580
